test: BSK_LPS_SRB: Viability Assessment in the BioMAP Diversity Plus: LPS Assay (AID 2283079); conditions: primary human HUVEC with PBMC;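 further: total protein by sulforhodamine B absorbance as a cytotoxicity measure; measured one day after compound addition; fitted in both directions against DMSO so loss or gain of signal counts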
Activity calls are given as the source filed them. How the source made its calls: active means hit-call score of the fitted dose curve at least 0.9, where 1 is the maximum; inactive means score below 0.9.
// classify into active, inactive

Call for entry `O=C(O)Cc1cc(I)c(Oc2cc(I)c(O)c(I)c2)c(I)c1` :
inactive

Call for entry CCC(C)(C)C1CCC(O)CC1 (stereo not given) :
inactive

Call for entry `CCN(CC)CCNc1ccc(CNC=O)c2sc3ccc(OC)cc3c(=O)c12` :
active

Call for entry `Oc1cccc(O)c1` :
inactive

Call for entry COCC(C)O (stereo not given) :
inactive

Call for entry `OC1CCCCC1` :
inactive

Call for entry `CC1=C(/C=C/C(C)=C/C=C/C(C)=C/C(=O)O)C(C)(C)CCC1` :
inactive

Call for entry CCc1ccc(CCOc2ccc(CC3SC(=O)NC3=O)cc2)nc1 (stereo not given) :
inactive

Call for entry `CCC(=C(c1ccc(O)cc1)c1ccc(OCCN(C)C)cc1)c1ccccc1` :
active

Call for entry `c1ccc2cc3c(ccc4ccccc43)cc2c1` :
inactive

Call for entry NC(=O)N1C(=O)C(C(=O)c2cc(Cl)cs2)c2cc(F)c(Cl)cc21 (stereo not given) :
active

Call for entry `CCCCCCCCCCCCCCCS(=O)(=O)Oc1ccccc1` :
inactive

Call for entry `CCCCCCCC(=O)O` :
inactive

Call for entry `CC(C)(C)CC(C)(C)c1ccc(O)c(-n2nc3ccccc3n2)c1` :
inactive

Call for entry `CN1CCC[C@H]1c1cccnc1` :
inactive

* * *

read-out: Interferon-gamma inducible Protein 10 (IP10), CXCL10 (gene 3627); test: BSK_hDFCGF_IP10: BioMAP Diversity Plus: hDFCGF Assay for Interferon-gamma inducible Protein 10 (IP10) Biomarker Activity (AID 2283053); details: primary human foreskin fibroblasts; actives raise or lower the signal
Active and inactive are the calls of the source. How the source made its calls: active means hit-call score of the fitted dose curve at least 0.9, where 1 is the maximum; inactive means score below 0.9.
// classify into active, inactive

Call for entry `CCN(CC)CCNc1ccc(CNC=O)c2sc3ccc(OC)cc3c(=O)c12` :
active

Call for entry `CC(C)(C)c1cc(C(C)(C)C)c(O)c(C(C)(C)C)c1` :
active

Call for entry NC(=O)N1C(=O)C(C(=O)c2cc(Cl)cs2)c2cc(F)c(Cl)cc21 (stereo not drawn) :
active

Call for entry OC1CCC(C2CCCCC2)CC1 (stereo not drawn) :
inactive

Call for entry `CCCCCCC(=O)O` :
inactive

Call for entry `O=[N+]([O-])c1ccc(O)cc1` :
inactive

Call for entry `Nc1cccc2c(N)cccc12` :
active

Call for entry `O=C(O)c1ccccc1C(c1ccc(O)cc1)c1ccc(O)cc1` :
inactive

Call for entry COCC(C)O (stereo not drawn) :
inactive

Call for entry `CC(C)(C)CC(C)(C)c1ccc(O)c(-n2nc3ccccc3n2)c1` :
active

Call for entry N#C[C@@H]1CC(F)(F)CN1C(=O)CNC1CC2CCC(C1)N2c1ncccn1 (stereo partly drawn) :
inactive

Call for entry `CC(C)(C)c1ccc(O)c(C(C)(C)C)c1` :
active

Call for entry `c1ccc2cc3c(ccc4ccccc43)cc2c1` :
inactive

Call for entry `Cc1cc(CCN2CCN(c3nsc4ccccc34)CC2)cc2c1NC(=O)CC2(C)C` :
active

Call for entry `C=C(C)C(=O)OCCC(F)(F)C(F)(F)C(F)(F)C(F)(F)C(F)(F)C(F)(F)F` :
inactive

Call for entry `CCCOC(=O)c1ccc(O)cc1` :
inactive

Call for entry `CC[C@H](c1ccc(O)cc1)[C@@H](CC)c1ccc(O)cc1` :
active

Call for entry `O=C(OCCOCCOC(=O)c1ccccc1)c1ccccc1` :
inactive

Call for entry `COc1ccc([N+](=O)[O-])cc1N` :
inactive

Call for entry CC(O)CO (stereo not drawn) :
inactive

Call for entry COCC(C)OCC(C)O (stereo not drawn) :
inactive

Call for entry CCCCC(CC)COC(=O)CCCCC(=O)OCc1ccccc1 (stereo not drawn) :
inactive

Call for entry `CCCCCCCCCCCCc1ccccc1S(=O)(=O)O` :
active

Each recorded value in this set is attributed to PubChem BioAssay (EPA / NIEHS).
